Values compiled from PubChem BioAssay.

- System: Lefty1
- assay.notes: Lefty1 binders on small-molecule microarrays, primary screen, biochemical, small-molecule microarray, 635/667 nm fluorescence (AID 1139)
- measurement.conditions: small-molecule microarray binding, fluorescence 635/667; higher = more signal
Could you label it Fulfilled if measured composite z-score is 0.8 or higher, and Not fulfilled otherwise?

{"record.smiles": "C=CCC1=C[C@H]2[C@H]([C@@H]3C=C[C@]2(CC=C)C(=O)[C@]32CO2)[C@@]2(CO2)C1=O", "target.entity": "Lefty1", "class.assignment": "Fulfilled"}
{"record.smiles": "CCCC=C(CCC)[C@@H](NS(=O)(=O)c1ccc(C(F)(F)F)cc1)c1ccc(-c2ccccc2)cc1", "target.entity": "Lefty1", "class.assignment": "Not fulfilled"}
{"record.smiles": "CCCNC(=O)[C@@H]1c2ccccc2C(=O)N(C2CCCCC2)[C@H]1c1ccc(CO)cc1", "target.entity": "Lefty1", "class.assignment": "Not fulfilled"}
{"record.smiles": "CCCC[C@@H]1C[C@H]1[C@@H](NC(=O)c1ccccc1)c1ccccc1C(F)(F)F", "target.entity": "Lefty1", "class.assignment": "Not fulfilled"}
{"record.smiles": "C=CCNC(=O)[C@@H]1[C@H]2C(=O)O[C@H](c3ccccc3)[C@H](c3ccccc3)N2[C@H](c2ccc(OCCO)cc2)[C@@]12C(=O)N(C(=O)OCCOC)c1ccc(C#CC3(O)CCCCCC3)cc12", "target.entity": "Lefty1", "class.assignment": "Not fulfilled"}
{"record.smiles": "CC(=O)NCCCC[C@@H]1NC(=O)[C@H]2C[C@@H](C(=O)NCCCCCCN(C)C)[C@@H](c3ccc(O)cc3)N2C1=O", "target.entity": "Lefty1", "class.assignment": "Fulfilled"}
